Reference source for all entries: patent US20100317607A1

Property: MIC; scope: individual molecules
System: H37Rv strain of M. tuberculosis
assay protocol: Alamar Blue Susceptibility Test (MABA)
Format: cell-based
applied conditions: Mycobacterium tuberculosis; H37Rv strain of M. tuberculosis; Alamar Blue; read-out: MABA (TB growth inhibition, colourimetric assay)
Counter-ions that a name gives are not always drawn.
quantity measured: MIC

molecule="Fc1ccc(CNc2nc(NCCN3CCCCC3)nc3ccccc23)cc1 [Compound 209, hydrochloride]" quantity_measured=MIC result="50 to 128 µM"
molecule=c1ccc(CNc2nc(N3CCOCC3)nc3ccccc23)cc1 quantity_measured=MIC result="50 to 128 µM"
molecule="COc1ccc(N2CCN(c3nc(NCc4ccccc4)c4ccccc4n3)CC2)cc1 [Compound 136, hydrochloride]" quantity_measured=MIC result="< 10 µM"
molecule=CN1CCN(c2nc(NCCNc3ccc([N+](=O)[O-])cc3)c3ccccc3n2)CC1 quantity_measured=MIC result="50 to 128 µM"

----------
Tested on: H37Rv strain of M. tuberculosis
assay protocol: Alamar Blue Susceptibility Test (MABA)
Format: cell-based
applied conditions: Mycobacterium tuberculosis; H37Rv strain of M. tuberculosis; Alamar Blue; read-out: MABA (TB growth inhibition, colourimetric assay)
Where a name gives a salt, the structure may show the parent alone.
Property: MIC; scope: individual molecules
quantity measured: MIC

molecule="CC(Nc1nc(N2CCN(S(=O)(=O)c3ccccc3)CC2)nc2ccccc12)c1ccccc1 (stereo not drawn)" quantity_measured=MIC result="50 to 128 µM"
molecule=c1coc(CNc2nc(N3CCCCC3)nc3ccccc23)c1 quantity_measured=MIC result="< 10 µM"
molecule=c1ccc(C2CCN(c3nc(N4CCCCC4)nc4ccccc34)CC2)cc1 quantity_measured=MIC result="10 to 50 µM"
molecule=Fc1ccc(CNc2nc(N3CCCCC3)nc3cccc(Cl)c23)cc1 quantity_measured=MIC result="10 to 50 µM"
molecule="COc1ccccc1CNc1nc(N2CCCCC2)nc2ccccc12 [Compound 81, hydrochloride]" quantity_measured=MIC result="10 to 50 µM"
molecule="COc1ccc(CCNc2nc(N3CCCCC3)nc3ccccc23)cc1 [Compound 84, hydrochloride]" quantity_measured=MIC result="< 10 µM"
molecule=c1ccc(CNc2nc(N3CCCCC3)nc3ccccc23)nc1 quantity_measured=MIC result="50 to 128 µM"
molecule=FC(F)(F)c1ccc(CCNc2nc(N3CCCCC3)nc3ccccc23)cc1 quantity_measured=MIC result="< 10 µM"
molecule=CCS(=O)(=O)N1CCN(c2nc(NCc3ccccc3)c3ccccc3n2)CC1 quantity_measured=MIC result="50 to 128 µM"
molecule=CC(C)(Cc1ccc(F)cc1)Nc1nc(N2CCCCC2)nc2ccccc12 quantity_measured=MIC result="10 to 50 µM"
molecule=CCOC(=O)CN1CCN(c2nc(NCc3ccccc3)c3ccccc3n2)CC1 quantity_measured=MIC result="50 to 128 µM"
molecule=Oc1ccc(CNc2nc(NCc3ccc(F)cc3)nc3ccccc23)cc1 quantity_measured=MIC result="10 to 50 µM"
molecule="Fc1ccc(CNc2nc(Nc3ccc(F)cc3)nc3ccccc23)cc1 [Compound 118, hydrochloride]" quantity_measured=MIC result="10 to 50 µM"
molecule=COC[C@@H]1CCCN1c1nc(NCc2ccc(F)cc2)c2ccccc2n1 quantity_measured=MIC result="10 to 50 µM"
molecule="c1ccc(CNc2nc(N3CCN(c4ccccc4)CC3)nc3ccccc23)cc1 [Compound 133, hydrochloride]" quantity_measured=MIC result="< 10 µM"
molecule=c1ccc(CNc2nc(Nc3ccccc3)nc3ccccc23)cc1 quantity_measured=MIC result="10 to 50 µM"
molecule="C[C@@H](Nc1nc(N2CCCCC2)nc2ccccc12)c1ccc2ccccc2c1 [Compound 100, hydrochloride]" quantity_measured=MIC result="< 10 µM"
molecule=COc1cc2c(cc1OC)CN(c1nc(N3CCCC3)nc3ccccc13)CC2 quantity_measured=MIC result="10 to 50 µM"
